B1: SEC22B (parent)
chain: FPKKLAFAYLEDLHSEFDEQHGKK

Variants of: B1
Assay: protein stability index of a GFP-peptide fusion (GPS, HEK-293T) (PSI 1-6); higher = more stable;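 further: lentivirally expressed fusions sorted by FACS into six bins by GFP to DsRed ratio, PSI derived from sequencing read proportions per bin multiplied by bin number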
Conditions: c terminus: a fixed tail appended
Quantity: protein stability index
Reply: number alone, nothing else.

>>> test_value("A8Q")
3.08
>>> test_value("P2I")
1.98
>>> test_value("E11D")
2.37
>>> test_value("F1Y")
2.53
>>> test_value("K23H")
2.63

Sample K24W — what was its protein stability index?
2.54
